Observed pIC50 for KRas WT (Homo sapiens), reported per entry below.
By convention, pIC50 is the negative base-10 log of a molar concentration.

# molecule, pIC50
measured = [
    ("O=C1NCC2(CCCN(c3nc(OCC45CCCN4CCC5)nc4c(F)c(-c5cccc6cccc(CO)c56)ncc34)C2)N1 (stereo not shown)", 6.33),
    ("O=C1CC2(CCCN(c3nc(OCC45CCCN4CCC5)nc4c(F)c(-c5cccc6cccc(CF)c56)ncc34)C2)N1 (stereo not shown)", 5.52),
    ("CCc1c(F)ccc2cc(O)cc(-c3ncc4c(N5CCC[C@@](C)(O)C5)nc(C(=O)NC(C)CN(C)C)nc4c3F)c12 (stereo partly shown)", 6.69),
    ("O=C1NC(=O)C2(CCCCN(c3nc(OCC45CCCN4CCC5)nc4c(F)c(-c5cccc6cccc(F)c56)ncc34)C2)N1 (stereo not shown)", 5.81),
    ("CS(=O)(=O)C1CCCCCN(c2nc(OCC34CCCN3CCC4)nc3c(F)c(-c4cccc5cccc(F)c45)ncc23)C1 (stereo not shown)", 5.42),
]

Switching to the query record.
Tell me reported pIC50 for Fc1c(-c2cccc3cccc(Cl)c23)ncc2c(N3CCCC3c3cn[nH]c3)nc(OCC34CCCN3CCC4)nc12 (stereo not shown) , tested with KRas WT (Homo sapiens).
Sequence (P01116 1-169 isoform P01116-2): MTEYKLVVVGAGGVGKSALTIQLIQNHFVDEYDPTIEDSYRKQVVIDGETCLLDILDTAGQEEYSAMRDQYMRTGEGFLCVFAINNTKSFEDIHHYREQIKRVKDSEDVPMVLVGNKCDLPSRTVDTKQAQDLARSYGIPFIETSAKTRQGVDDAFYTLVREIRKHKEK
5.63

* * *

- assayedSystem: KRas G12D (Homo sapiens, UniProt P01116, G12D)
- Sequence (P01116 1-169 isoform P01116-2 G12D): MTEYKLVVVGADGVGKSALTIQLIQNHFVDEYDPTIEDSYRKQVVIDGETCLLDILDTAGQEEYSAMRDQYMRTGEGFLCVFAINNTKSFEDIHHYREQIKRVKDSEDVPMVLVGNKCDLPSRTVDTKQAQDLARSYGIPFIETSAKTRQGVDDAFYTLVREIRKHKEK
- testDescription: biochemical
measuredMetric: pIC50
pIC50 is a log-scale quantity: -log10 of the concentration expressed in molar.

# compound, pIC50
records = [
    ("OCC12CC(Nc3nc(OCC45CCCN4CCC5)nc4c(F)c(-c5cccc6cccc(F)c56)ncc34)(C1)C2 [Example 85]", 4.36),
    ("CCc1c(F)ccc2cc(O)cc(-c3ncc4c(N5CCOCC(OC)C5)nc(OC[C@@]56CCCN5C[C@H](F)C6)nc4c3F)c12 (stereo partly shown) [Example 499]", 7.57),
]

Can you share its pIC50? I mean this compound: O=C1CC2(CCN(c3nc(OCC45CCCN4CCC5)nc4c(F)c(-c5cccc6cccc(F)c56)ncc34)CC2)N1 [Example 77]
4.89

Item O=CNC1CCCN(c2nc(OCC34CCCN3CCC4)nc3c(F)c(-c4cccc5cccc(F)c45)ncc23)C1 (stereo not shown) [Example 242] has what recorded pIC50?
5.10

Value lookup for pIC50; key = C#Cc1cccc2cccc(-c3ncc4c(N5C[C@@H]6C(=O)NC(=O)[C@@H]6C5)nc(OCC56CCCN5CCC6)nc4c3F)c12 [Example 458]
7.82

Which pIC50 is listed for CCc1c(F)ccc2cc(O)cc(-c3ncc4c(NCC5CNC5=O)nc(OC[C@@]56CCCN5C[C@H](F)C6)nc4c3F)c12 (stereo partly shown) [Example 485] ?
8.05

Could you share which pIC50 value was measured for CS(=O)(=O)C1CCCCCN(c2nc(OCC34CCCN3CCC4)nc3c(F)c(-c4cccc5cccc(F)c45)ncc23)C1 (stereo not shown) [Example 251] ?
5.17

* * *

// reported pIC50 per item
- assayedSystem: KRas G12D (Homo sapiens, UniProt P01116, G12D);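 note: TR-FRET displacement binding assay on KRas, read after a one-hour incubation at room temperature, IC50 fitted from percent-of-control values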
- testDescription: biochemical
// pIC50 is dimensionless: -log10 of concentration (M)

Worked examples, 5 compounds total:
# compound, measuredMetric, testResult
measured = [
    ("Fc1c(-c2cccc3cccc(F)c23)ncc2c(NCCCc3cc[nH]n3)nc(OCC34CCCN3CCC4)nc12 [Example 84]", "pIC50", 4.89),
    ("C#Cc1c(F)ccc2cccc(-c3ncc4c(N5CCCC6(CNC(=O)C6)C5)nc(OC[C@@]56CCCN5C[C@H](F)C6)nc4c3F)c12 (stereo partly shown) [Example 36]", "pIC50", 8.05),
    ("OC1CCCN(c2nc(OCC34CCCN3CCC4)nc3c(F)c(-c4cccc5cccc(F)c45)ncc23)CC1 (stereo not shown) [Example 8]", "pIC50", 5.65),
    ("CCc1c(F)ccc2cc(O)cc(-c3ncc4c(N5CCC[C@]6(C5)C[C@](C)(O)C6)nc(OCC56CCCN5CCC6)nc4c3F)c12 [Example 328]", "pIC50", 8.05),
    ("O=C1CC2(CCCN(c3nc(OCC45CCCN4CCC5)nc4c(F)c(-c5cccc6cccc(F)c56)ncc34)C2)C(=O)N1 (stereo not shown) [Example 265]", "pIC50", 5.27),
]

I have this compound here, CCc1c(F)ccc2cc(O)cc(-c3ncc4c(NC[C@@H]5COC[C@@H]5O)nc(OC[C@@]56CCCN5C[C@H](F)C6)nc4c3F)c12 (single isomer, unassigned) [Example 493] , and I need its recorded pIC50.
6.89

Which pIC50 value is on record for CCc1c(F)ccc2cc(O)cc(-c3ncc4c(N5CCCCC(S(C)(=O)=O)C5)nc(OC[C@@]56CCCN5C[C@H](F)C6)nc4c3F)c12 (stereo partly shown) [Example 308] ?
8.22

I have this compound here, CC1(O)CCCN(c2nc(OCC34CCCN3CCC4)nc3c(F)c(-c4cccc5cccnc45)ncc23)C1 (stereo not shown) [Example 66] , and I need its recorded pIC50.
4.57

Bench note: what pIC50 did Fc1c(-c2cccc3cccc(F)c23)ncc2c(N3CCCC4(CC4)C3)nc(OCC34CCCN3CCC4)nc12 [Example 114] show?
5.36

Which pIC50 reading was recorded for the compound CSc1cccc2cccc(-c3ncc4c(N5CCCC6(CC(=O)N6)C5)nc(OCC56CCCN5CCC6)nc4c3F)c12 (stereo not shown) [Example 469] ?
6.90

* * *

Readings of pIC50 for the listed compounds
- assayedSystem: KRas G12R (Homo sapiens, UniProt P01116, G12R);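 note: TR-FRET displacement assay of compound binding to KRas, read after one hour at room temperature, potency from a four-parameter fit of percent-of-control values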
- Sequence (P01116 1-169 isoform P01116-2 G12R): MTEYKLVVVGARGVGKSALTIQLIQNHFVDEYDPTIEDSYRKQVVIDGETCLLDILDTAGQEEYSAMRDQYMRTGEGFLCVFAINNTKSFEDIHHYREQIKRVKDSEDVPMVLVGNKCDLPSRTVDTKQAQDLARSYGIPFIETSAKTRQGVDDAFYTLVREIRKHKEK
- testDescription: biochemical
Quick note: pIC50 means taking -log10 of the concentration in moles per liter.

Recorded results for 10 compounds are shown here.
# compound, pIC50
data = [
    ("Cc1cc2sc(N)nc2c(-c2ncc3c(N4CCCC(C)(O)C4)nc(OC[C@@]45CCCN4C[C@H](F)C5)nc3c2F)c1C (some centres unmarked)", 4.70),
    ("Cc1cc2[nH]ncc2c(-c2ncc3c(N4CCCC(C)(O)C4)nc(OCC45CCCN4CCC5)nc3c2F)c1C (centres unmarked)", 5.88),
    ("CCc1c(F)ccc2cc(O)cc(-c3ncc4c(NCc5cc[nH]n5)nc(OC[C@@]56CCCN5C[C@H](F)C6)nc4c3F)c12", 8.30),
    ("OC1CC2CC(C1)N(c1nc(OCC34CCCN3CCC4)nc3c(F)c(-c4cccc5cccc(F)c45)ncc13)C2 (centres unmarked)", 5.05),
    ("CCc1c(F)ccc2cc(O)cc(-c3ncc4c(N5CCC[C@@](C)(O)C5)nc(OCC5(CN6CCOCC6)CC5)nc4c3F)c12", 8.52),
    ("O=C1CCN(c2nc(OCC34CCCN3CCC4)nc3c(F)c(-c4cccc5cccc(F)c45)ncc23)CCCN1", 4.69),
    ("OC1CCCN(c2nc(OCC34CCCN3CCC4)nc3c(F)c(-c4cccc5cccc(F)c45)ncc23)C1 (centres unmarked)", 5.21),
    ("O=S1(=O)NCCC2(CCCN(c3nc(OCC45CCCN4CCC5)nc4c(F)c(-c5cccc6cccc(F)c56)ncc34)C2)N1 (centres unmarked)", 5.59),
    ("O=C1NCCC2(CCCN(c3nc(OCC45CCCN4CCC5)nc4c(F)c(-c5cccc6cccc(F)c56)ncc34)C2)N1 (centres unmarked)", 4.85),
    ("CCc1c(F)ccc2cc(O)cc(-c3ncc4c(N5C[C@H](C)C[C@@H](O)C5)nc(OC[C@@]56CCCN5C[C@H](F)C6)nc4c3F)c12", 8.22),
]

Field request: pIC50 | item: N#Cc1ccccc1N1CCN(c2nc(OCC34CCCN3CCC4)nc3c(F)c(-c4cccc5cccc(F)c45)ncc23)CC1
5.59

Fill in the blank: the reported pIC50 of CS(=O)(=O)C1COCCN(c2nc(OCC34CCCN3CCC4)nc3c(F)c(-c4cccc5cccc(F)c45)ncc23)C1 (centres unmarked) is ____.
5.11

What measured pIC50 goes with O=C1CC2(CCCN(c3nc(OCC45CCCN4CCC5)nc4c(F)c(-c5cccc6cccc(F)c56)ncc34)C2)N1 (centres unmarked) ?
6.46

Would you kindly share the measured pIC50 for Fc1c(-c2cccc3cccc(F)c23)ncc2c(NCc3cnn4cccnc34)nc(OCC34CCCN3CCC4)nc12 ?
4.79

// query pIC50 value for entry CCc1c(F)ccc2cc(O)cc(-c3ncc4c(N5CCC[C@@](C)(O)C5)nc(OCC(C)(C)CN(C)C)nc4c3F)c12
8.05

Find the recorded pIC50 belonging to Fc1c(-c2cccc3cccc(F)c23)ncc2c(NCc3ccc4nccn4c3)nc(OCC34CCCN3CCC4)nc12 and report it.
6.31
